- test_system: PD-L1 His protein / PD-1 Fc protein (Homo sapiens, UniProt Q9NZQ7)
- Sequence (Q9NZQ7 19-238 limits assumed): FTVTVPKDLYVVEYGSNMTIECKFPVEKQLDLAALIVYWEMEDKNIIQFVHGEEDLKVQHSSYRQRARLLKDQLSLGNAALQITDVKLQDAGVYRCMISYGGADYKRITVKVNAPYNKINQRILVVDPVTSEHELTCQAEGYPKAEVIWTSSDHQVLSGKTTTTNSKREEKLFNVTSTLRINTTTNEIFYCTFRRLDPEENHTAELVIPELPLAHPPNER
- assay_method_text: HTRF Assay (PD-1/PD-L1 interaction)
- experimental_conditions: PD-L1 His 6 nM, PD-1 Fc 6 nM
- Method: PD-L1 His protein was prepared and added at the final concentration of 6 nM in the White opaque 384 well plate (Corning cat #3824BC). PD-L1 small molecule inhibitors were diluted by 3-fold starting from 20 μM and a final concentration of 0.001 μM and added to the well. PD-1 Fc protein was added at the final concentration of 6 nM. […] The plate was read using PerkinElmer Envision plate reader and data was analyzed by Prism 6 software.
pIC50: −log10 of the molar value.
Class Met: pIC50 at least 9. Class Not met: pIC50 below 9.

COc1nc(-c2cccc(-c3cccc(-c4ccc5c(CNC[C@@H]6CCC(=O)N6)cn(C)c5c4)c3Cl)c2Cl)ccc1CNC[C@@H]1CCC(=O)N1 [Example 452] ... Not met
CN1CCC(NC[C@@H]2CCC(=O)N2)c2ccc(-c3cccc(-c4cccc(-c5ccc6c(n5)N(C)CCC6NC[C@@H]5CCC(=O)N5)c4Cl)c3Cl)nc21 (some centres unmarked) [Example 42] ... Not met
COc1nc(-c2cccc(-c3cccc(-c4ccn5c(=O)c(CN(C)CCO)cnc5c4)c3Cl)c2Cl)ccc1CNC[C@@H]1CCC(=O)N1 [Example 281] ... Met
COc1nc(-c2cccc(-c3cccc(-c4cc5c(=O)n(C)c(CNCC(C)(C)C(F)(F)F)nn5c4)c3Cl)c2Cl)ccc1CNC[C@@H]1CCC(=O)N1 [Example 466] ... Not met
COc1nc(-c2cccc(-c3cccc(-c4ccn5c(=O)c(CNC[C@H](C)O)c(OC)nc5c4)c3Cl)c2Cl)ccc1CNC[C@@H]1CCC(=O)N1 [Example 262] ... Not met
COc1cc(-c2cccc(-c3cccc(-c4ccc(CNC[C@@H]5CCC(=O)N5)c(OC)n4)c3Cl)c2Cl)cc2c1CN(C[C@@H]1CCC(=O)N1)CC2 [Example 155] ... Met
COc1nc(-c2cccc(-c3cccc(-c4ccn5c(=O)c(CNCC(=O)O)cnc5c4)c3Cl)c2Cl)ccc1CNC[C@@H]1CCC(=O)N1 [Example 189] ... Met
COc1nc(-c2cccc(-c3cccc(-c4ccc5cc(CNC[C@@H]6CCC(=O)N6)ccc5n4)c3Cl)c2Cl)ccc1CNC[C@@H]1CCC(=O)N1 [Example 369] ... Not met
COC(=O)CNCc1cnc2cc(-c3cccc(-c4cccc(-c5ccc(CNC[C@@H]6CCC(=O)N6)c(OC)n5)c4Cl)c3Cl)ncc2c1 [Example 305] ... Met
COc1nc(-c2cccc(-c3cccc(-c4ccn5c(=O)c(CNC[C@@H]6CCC(=O)N6)cnc5c4)c3Cl)c2Cl)ccc1CNC[C@@H]1CCC(=O)N1 [Example 33] ... Not met

Assess whether reported pIC50 for COc1nc(-c2cccc(-c3cccc(-c4ccn5c(=O)c(CNC[C@@H](O)CC(N)=O)cnc5c4)c3Cl)c2Cl)cc(F)c1CNC[C@@H]1CCC(=O)N1 [Example 275] sits at 9 or higher.
Met

Assess whether reported pIC50 for CNC(=O)C1CN(Cc2cnc3cc(-c4cccc(-c5cccc(-c6ccc(CNC[C@@H]7CCC(=O)N7)c(OC)n6)c5Cl)c4Cl)ccn3c2=O)C1 [Example 255] sits at 9 or higher.
Met

Assess whether reported pIC50 for COc1nc(-c2cccc(-c3cccc(-c4ncc5c(n4)CCN(C[C@@H]4CCC(=O)N4)C5)c3Cl)c2Cl)ccc1CNC[C@@H]1CCC(=O)N1 [Example 443] sits at 9 or higher.
Met

Assess whether reported pIC50 for COC(=O)C1CN(Cc2cnc3cc(-c4cccc(-c5cccc(-c6ccc(CN7CC(C(=O)OC)C7)c(OC)n6)c5Cl)c4Cl)ncc3c2)C1 [Example 289] sits at 9 or higher.
Not met

Assess whether reported pIC50 for Cc1c(-c2ccn3c(=O)c(CNC4CNC(=O)C4)cnc3c2)cccc1-c1cccc(-c2ccc(CNC[C@@H]3CCC(=O)N3)c(F)n2)c1Cl (some centres unmarked) [Example 62] sits at 9 or higher.
Not met

Sourced from patent US20230143612A1
